EC50 values by entry
Target System: EP2 (Homo sapiens)
Sequence (P43116 whole entry): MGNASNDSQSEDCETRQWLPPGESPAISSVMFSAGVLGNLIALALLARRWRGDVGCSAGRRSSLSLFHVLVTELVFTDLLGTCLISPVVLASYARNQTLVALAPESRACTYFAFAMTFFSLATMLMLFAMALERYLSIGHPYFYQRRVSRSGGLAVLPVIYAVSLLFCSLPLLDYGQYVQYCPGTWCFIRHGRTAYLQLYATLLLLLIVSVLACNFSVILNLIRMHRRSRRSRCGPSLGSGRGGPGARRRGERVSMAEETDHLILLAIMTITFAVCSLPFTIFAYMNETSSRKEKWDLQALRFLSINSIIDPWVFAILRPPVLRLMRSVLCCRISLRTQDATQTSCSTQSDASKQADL
Assay Method Text: EP2 cAMP assay
Assay type: cell-based
Property Label: EC50 (nM)

- Compound: "CCCCCC(F)c1ccc(N2C(=O)CC[C@@H]2COCc2csc(C(=O)O)c2)cc1 (stereo partly drawn) [compound 48]"
  Reported Value: 40
- Compound: "CCCCCC(O)c1ccc(N2C(=O)CC[C@@H]2CCSc2nc(C(=O)O)cs2)cc1 (single isomer, unassigned) [compound 17]"
  Reported Value: 0.15
- Compound: "CCCCCC(O)c1ccc(N2C(=O)CC[C@@H]2CCSc2nc(C(=O)O)cs2)cc1 (stereo partly drawn) [compound 14]"
  Reported Value: 0.19
- Compound: "CCCCCC(O)c1ccc(N2C(=O)CC[C@@H]2CSc2nc(C(=O)O)cs2)cc1 (stereo partly drawn) [compound 55]"
  Reported Value: 120
- Compound: "CCCCCC(F)c1ccc(N2C(=O)CC[C@@H]2CCSc2nc(C(=O)O)cs2)cc1 (stereo partly drawn) [compound 19]"
  Reported Value: 0.23
- Compound: "CCCCCCC(=O)c1ccc(N2C(=O)CC[C@@H]2CCSc2nc(C(=O)O)cs2)cc1 [compound 38]"
  Reported Value: 0.7
- Compound: "CCCCCCC(O)c1ccc(N2C(=O)CC[C@@H]2CCSc2nc(C(=O)O)cs2)cc1 (stereo partly drawn) [compound 33]"
  Reported Value: 0.4
- Compound: "CCCCCC(O)c1ccc(N2C(=O)CC[C@@H]2CCSc2nc(C(=O)O)cs2)cc1 (single isomer, unassigned) [compound 18]"
  Reported Value: 0.09
- Compound: "CCCCCCC(O)c1ccc(N2C(=O)CC[C@@H]2CCSc2nc(C(=O)O)cs2)cc1 (single isomer, unassigned) [compound 36]"
  Reported Value: 1.2

---

Listed here: items and their measured EC50.
Target System: hEP3A (Homo sapiens, UniProt P43115)
Sequence (P43115 whole entry): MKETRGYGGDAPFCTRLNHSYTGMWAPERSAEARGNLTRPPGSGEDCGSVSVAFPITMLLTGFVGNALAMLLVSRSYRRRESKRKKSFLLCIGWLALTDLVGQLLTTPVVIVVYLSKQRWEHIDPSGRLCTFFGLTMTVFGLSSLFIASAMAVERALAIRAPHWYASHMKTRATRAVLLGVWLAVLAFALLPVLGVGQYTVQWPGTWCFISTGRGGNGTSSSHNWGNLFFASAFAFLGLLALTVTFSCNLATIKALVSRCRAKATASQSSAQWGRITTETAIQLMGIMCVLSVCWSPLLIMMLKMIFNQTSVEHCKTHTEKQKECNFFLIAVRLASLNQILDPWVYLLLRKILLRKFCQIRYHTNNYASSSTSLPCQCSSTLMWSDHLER
Assay Method Text: Other receptors functional EC50, hEP3A
Type: cell-based

- Compound: "CCCCCC(F)c1ccc(N2C(=O)CC[C@@H]2CSc2nc(C(=O)O)cs2)cc1 (some centres unmarked)"
  Unit Name: "nM"
  EC50: 503
- Compound: "CCCCCC(O)c1ccc(N2C(=O)CC[C@@H]2CSc2nc(C(=O)O)cs2)cc1 (some centres unmarked)"
  Unit Name: "nM"
  EC50: 360
- Compound: "CCCCCC(O)c1ccc(N2C(=O)CC[C@@H]2COCc2csc(C(=O)O)c2)cc1 (some centres unmarked)"
  Unit Name: "nM"
  EC50: 1340
- Compound: "CCCCCC(O)c1ccc(N2C(=O)CC[C@@H]2CCSc2nc(C(=O)O)cs2)cc1 (some centres unmarked) [compound 14]"
  Unit Name: "nM"
  EC50: 44
- Compound: "CCCCCCC(=O)c1ccc(N2C(=O)CC[C@@H]2CCSc2nc(C(=O)O)cs2)cc1"
  Unit Name: "nM"
  EC50: 43
- Compound: "CCCCCC(O)c1ccc(N2C(=O)CC[C@@H]2CCSc2ncc(C(=O)O)s2)cc1 (some centres unmarked)"
  Unit Name: "nM"
  EC50: 11400
- Compound: "CCCCCC(O)c1ccc(N2C(=O)CC[C@@H]2CCSc2nc(C(=O)O)cs2)cc1 (single isomer, unassigned) [compound 17]"
  Unit Name: "nM"
  EC50: 35
- Compound: "CCCCCC(O)c1ccc(N2C(=O)CC[C@@H]2CCCc2nc(C(=O)O)cs2)cc1 (some centres unmarked)"
  Unit Name: "nM"
  EC50: 42

---

Listed below: EC50 values for each entry.
Target System: hTP (Homo sapiens, UniProt P21731)
Sequence (P21731 whole entry): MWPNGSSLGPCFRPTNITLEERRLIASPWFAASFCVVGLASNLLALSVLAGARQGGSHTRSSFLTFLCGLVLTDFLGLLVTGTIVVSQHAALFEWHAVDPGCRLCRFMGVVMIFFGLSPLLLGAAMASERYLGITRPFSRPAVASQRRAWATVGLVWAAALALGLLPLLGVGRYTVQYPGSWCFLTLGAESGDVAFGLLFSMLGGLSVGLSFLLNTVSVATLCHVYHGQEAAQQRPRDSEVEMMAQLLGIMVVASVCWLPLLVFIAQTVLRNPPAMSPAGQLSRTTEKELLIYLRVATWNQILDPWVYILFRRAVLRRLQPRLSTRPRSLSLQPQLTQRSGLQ
Assay Method Text: Other receptors functional EC50, hTP
Type: cell-based

- Molecule: "CCCCCC(O)c1ccc(N2C(=O)CC[C@@H]2CCSc2nc(C(=O)O)cs2)cc1 (stereo partly shown)"
  Unit Name: "nM"
  Bound Type: ">"
  EC50: 10000
- Molecule: "CCCCCC(F)c1ccc(N2C(=O)CC[C@@H]2CSc2nc(C(=O)O)cs2)cc1 (stereo partly shown)"
  Unit Name: "nM"
  Bound Type: "="
  EC50: 14500
- Molecule: "O=C(O)c1ccc(COC[C@H]2CCC(=O)N2c2ccc(-c3nccs3)cc2)s1"
  Unit Name: "nM"
  Bound Type: ">"
  EC50: 10000
- Molecule: "CCCCCC(O)c1ccc(N2C(=O)CC[C@@H]2CSc2nc(C(=O)O)cs2)cc1 (stereo partly shown)"
  Unit Name: "nM"
  Bound Type: "="
  EC50: 3890

---

We begin with a simple list: items and their reported EC50.
Target System: EP2 (Homo sapiens)
Assay Method Text: EP2 cAMP assay
Format: cell-based
Property Label: EC50 (nM)

- Compound: "CCCCCC(O)c1ccc(N2C(=O)CC[C@@H]2CCSc2ncc(C(=O)O)s2)cc1 (some centres unmarked)"
  Reported Value: 4
- Compound: "CCCCCC(F)c1ccc(N2C(=O)CC[C@@H]2COCc2cc(C(=O)O)cs2)cc1 (some centres unmarked)"
  Reported Value: 7
- Compound: "CCCCCC(O)c1ccc(N2C(=O)CC[C@@H]2CCCc2nc(C(=O)O)cs2)cc1 (some centres unmarked)"
  Reported Value: 0.8
- Compound: "CCCCCC(F)c1ccc(N2C(=O)CC[C@@H]2CSc2nc(C(=O)O)cs2)cc1 (some centres unmarked)"
  Reported Value: 117
- Compound: "CCCCCC(O)c1ccc(N2C(=O)CC[C@@H]2COCc2cc(C(=O)O)cs2)cc1 (some centres unmarked)"
  Reported Value: 5.5
- Compound: "CCCCCC(O)c1ccc(N2C(=O)CC[C@@H]2COCc2csc(C(=O)O)c2)cc1 (some centres unmarked)"
  Reported Value: 18
- Compound: "O=C(O)c1ccc(COC[C@H]2CCC(=O)N2c2ccc(-c3nccs3)cc2)s1"
  Reported Value: 38
- Compound: "CCCCCCC(O)c1ccc(N2C(=O)CC[C@@H]2CCSc2nc(C(=O)O)cs2)cc1 (single isomer, unassigned) [compound 37]"
  Reported Value: 0.4

---

Target System: hDP (Homo sapiens)
Sequence (Q13258 whole entry): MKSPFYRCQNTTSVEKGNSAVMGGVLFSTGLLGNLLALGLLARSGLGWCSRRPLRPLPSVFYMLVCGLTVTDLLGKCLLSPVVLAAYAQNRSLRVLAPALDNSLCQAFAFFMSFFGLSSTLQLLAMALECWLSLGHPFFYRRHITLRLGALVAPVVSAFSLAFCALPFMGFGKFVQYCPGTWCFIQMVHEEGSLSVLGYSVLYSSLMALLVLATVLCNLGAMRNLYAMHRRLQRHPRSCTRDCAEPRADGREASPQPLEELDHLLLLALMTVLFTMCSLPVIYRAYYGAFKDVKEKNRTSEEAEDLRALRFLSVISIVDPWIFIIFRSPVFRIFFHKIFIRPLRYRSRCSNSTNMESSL
Assay Method Text: Other receptors functional EC50, hDP
Assay type: cell-based
Property Label: EC50 (nM)

- Molecule: "CCCCCC(F)c1ccc(N2C(=O)CC[C@@H]2CCSc2nc(C(=O)O)cs2)cc1 (stereo partly shown)"
  Target System: "hDP (Homo sapiens)"
  Bound Type: ">"
  Reported Value: 10000
- Molecule: "CCCCCC(O)c1ccc(N2C(=O)CC[C@@H]2CCSc2nc(C(=O)O)cs2)cc1 (single isomer, unassigned) [compound 18]"
  Target System: "hDP (Homo sapiens)"
  Bound Type: "="
  Reported Value: 7170
- Molecule: "CCCCCCC(O)c1ccc(N2C(=O)CC[C@@H]2CCSc2nc(C(=O)O)cs2)cc1 (single isomer, unassigned) [compound 37]"
  Target System: "hDP (Homo sapiens)"
  Bound Type: "="
  Reported Value: 5320
- Molecule: "CCCCCC(O)c1ccc(N2C(=O)CC[C@@H]2CCCc2nc(C(=O)O)cs2)cc1 (stereo partly shown)"
  Target System: "hDP (Homo sapiens)"
  Bound Type: ">"
  Reported Value: 10000
- Molecule: "CCCCCC(O)c1ccc(N2C(=O)CC[C@@H]2CCSc2nc(C(=O)O)cs2)cc1 (single isomer, unassigned) [compound 17]"
  Target System: "hDP (Homo sapiens)"
  Bound Type: ">"
  Reported Value: 10000
- Molecule: "CCCCCC(O)c1ccc(N2C(=O)CC[C@@H]2CSc2nc(C(=O)O)cs2)cc1 (stereo partly shown)"
  Target System: "hDP (Homo sapiens)"
  Bound Type: "="
  Reported Value: 16000
- Molecule: "CCCCCC(O)c1ccc(N2C(=O)CC[C@@H]2CCSc2nc(C(=O)O)cs2)cc1 (stereo partly shown) [compound 14]"
  Target System: "hDP (Homo sapiens)"
  Bound Type: ">"
  Reported Value: 10000
- Molecule: "CCCCCC(F)c1ccc(N2C(=O)CC[C@@H]2CSc2nc(C(=O)O)cs2)cc1 (stereo partly shown)"
  Target System: "hDP (Homo sapiens)"
  Bound Type: "="
  Reported Value: 16400
- Molecule: "CCCCCCC(=O)c1ccc(N2C(=O)CC[C@@H]2CCSc2nc(C(=O)O)cs2)cc1"
  Target System: "hDP (Homo sapiens)"
  Bound Type: "="
  Reported Value: 594
- Molecule: "CCCCCCC(O)c1ccc(N2C(=O)CC[C@@H]2CCSc2nc(C(=O)O)cs2)cc1 (stereo partly shown) [compound 33]"
  Target System: "hDP (Homo sapiens)"
  Bound Type: "="
  Reported Value: 1560
- Molecule: "O=C(O)c1ccc(COC[C@H]2CCC(=O)N2c2ccc(-c3nccs3)cc2)s1"
  Target System: "hDP (Homo sapiens)"
  Bound Type: "="
  Reported Value: 4640
- Molecule: "CCCCCCC(O)c1ccc(N2C(=O)CC[C@@H]2CCSc2nc(C(=O)O)cs2)cc1 (single isomer, unassigned) [compound 36]"
  Target System: "hDP (Homo sapiens)"
  Bound Type: "="
  Reported Value: 11900
- Molecule: "CCCCCC(O)c1ccc(N2C(=O)CC[C@@H]2CCSc2ncc(C(=O)O)s2)cc1 (stereo partly shown)"
  Target System: "hDP (Homo sapiens)"
  Bound Type: ">"
  Reported Value: 10000

Where do these numbers come from? They come from patent US7589213B2.
